# Measured on: Cytochrome P450 2C9 (Homo sapiens) (UniProt P11712)
# Sequence (P11712 whole entry, looked up): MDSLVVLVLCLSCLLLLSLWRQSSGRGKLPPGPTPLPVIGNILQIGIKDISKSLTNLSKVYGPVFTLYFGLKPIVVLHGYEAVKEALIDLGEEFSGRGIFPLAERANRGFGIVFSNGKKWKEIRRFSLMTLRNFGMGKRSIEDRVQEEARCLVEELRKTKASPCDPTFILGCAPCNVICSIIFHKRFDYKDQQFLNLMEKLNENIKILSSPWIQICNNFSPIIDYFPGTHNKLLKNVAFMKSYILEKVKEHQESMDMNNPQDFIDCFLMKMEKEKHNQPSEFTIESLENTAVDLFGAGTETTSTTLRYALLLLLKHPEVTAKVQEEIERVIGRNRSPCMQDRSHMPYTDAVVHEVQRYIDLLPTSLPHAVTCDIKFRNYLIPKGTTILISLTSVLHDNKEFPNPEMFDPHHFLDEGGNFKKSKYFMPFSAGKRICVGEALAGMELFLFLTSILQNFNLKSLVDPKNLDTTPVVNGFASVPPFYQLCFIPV
# Test details: blockers of cytochrome P450 2C9 activity – biochemical, luminescence, ADME assay, primary screen (AID 777)
# Test context: CYP2C9 Supersomes, luciferin-H conversion, at 5 µM
Screen size: about 96,000 compounds; about 19,000 (20%) were called active.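 How the source made its calls: active means blocking of liver enzyme CYP2C9 beyond about 50% at 5 µM (limit read from the data); inactive means the rest.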 These entries were drawn from the full list.
Answer with one of the outcomes given here: active, inactive

*Q* Returns: the outcome recorded for `O=C1C(Cl)=C(N2CCOCC2)C(=O)N1c1ccccc1` in this assay.
*A* inactive

*Q* # lookup: test call for CC(Oc1ccc(Cl)cc1Cl)C(=O)/C=C/N(C)C (stereo not drawn)
*A* inactive

*Q* For this molecule, state the assay outcome: `Cc1ccc(-n2c(Cc3cccs3)nnc2SCC(=O)OC(C)C)cc1`
*A* active

*Q* Outcome? `COc1cc(C(=S)N2CCOCC2)cc(OC)c1OC(=O)c1cc([N+](=O)[O-])c(C)c([N+](=O)[O-])c1`
*A* inactive

*Q* Record request — test call for `CCN(CC)P(=O)(/C(Cl)=C\Nc1c(C)n(C)n(-c2ccccc2)c1=O)N(CC)CC`
*A* inactive

*Q* Hi, do you know how CCN1CCCC1Cn1cnc2c([nH]c3cc(OC)ccc32)c1=O (stereo not drawn) came out in this test?
*A* inactive

*Q* # lookup: test call for Cc1ccc(NC2=NC(c3ccccc3)n3c(nc(C)cc3=O)N2)cc1 (stereo not drawn)
*A* inactive

*Q* Give the logged outcome of this assay for the following molecule: `O=C(NCc1ccccn1)Nc1ccc(F)cc1`
*A* inactive

*Q* Hello, I am checking results. What call was entered for `O=C(O)CCN1C(=O)CC2(CCCCC2)C1=O` ?
*A* inactive

*Q* Any idea what this test logged for `Cn1ncc(Br)c1C(=O)NCc1cccs1` ?
*A* inactive

*Q* What did the test return for Cc1sc(NC(=O)C2C3CCC(O3)C2C(=O)O)c(C(=O)OC(C)C)c1-c1ccc(Cl)cc1 (stereo not drawn) ?
*A* inactive

*Q* Test call for this molecule, please: `CCOC(=O)N1CCN(C(=O)COc2ccc(Cl)cc2C)CC1`
*A* inactive

*Q* Name the outcome recorded for `CCS(=O)(=O)n1nc(-c2ccccc2)nc1SCc1ccccc1` in the assay.
*A* active

*Q* Tell me the recorded outcome of this test for `O=C(c1cccc2ccccc12)N1CCN(c2ccccc2F)CC1` .
*A* inactive

*Q* // outcome(item) with item = O=C1CSC(c2ccccc2)N1c1nc(-c2ccc(Cl)cc2Cl)cs1 (stereo not drawn)
*A* inactive

*Q* Hi, do you know how CC(C)COC(=O)c1ccc(NC(=O)C2C3C=CC(C3)C2C(=O)O)cc1 (stereo not drawn) came out in this test?
*A* inactive

*Q* Could you please tell me the result logged for `COC(=O)c1ccc(Oc2nc(Nc3ccc(F)cc3)nc(N3CCCC3)n2)cc1` in this assay?
*A* inactive

*Q* Recorded call for `CN(C)Cc1c(C#N)c2ccccc2n1C` ?
*A* inactive

*Q* For this molecule, state the assay outcome: `Cc1ccc2nc(NC(=O)C3CCN(S(=O)(=O)c4ccc5c(c4)oc(=O)n5C)CC3)sc2c1`
*A* inactive

*Q* Dear all, I need the recorded test outcome for O=C1C2C3C=CC(C4CC34)C2C(=O)N1/N=C/c1ccc(-c2ccccc2[N+](=O)[O-])o1 (stereo not drawn) , thank you.
*A* inactive

*Q* Name the outcome recorded for `Cc1cc(-c2ccc(/C=N/n3cnnc3)o2)c([N+](=O)[O-])cc1C` in the assay.
*A* active

*Q* What classification did `Cn1c(SCC(=O)c2cccs2)nnc1-c1ccco1` end up with in this test?
*A* inactive

*Q* Dear all, I need the recorded test outcome for `COc1ccc(C)cc1NC(=O)CCS(=O)(=O)c1cccc2nonc12` , thank you.
*A* inactive

* * *

# Measured on: Cytochrome P450 2C9 (Homo sapiens) (UniProt P11712)
# Test details: blockers of cytochrome P450 2C9 activity – biochemical, luminescence, ADME assay, primary screen (AID 777)
# Test context: CYP2C9 Supersomes, luciferin-H conversion, at 5 µM
Screen size: about 96,000 compounds; about 19,000 (20%) were called active.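 Rule for the calls: active = blocking of liver enzyme CYP2C9 beyond about 50% at 5 µM (limit read from the data); inactive = the rest.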 The list is a sample of the results.
Write down the outcome that applies. Available outcomes: 1 (active), -1 (inactive)

*Q* I'd appreciate the recorded outcome for `O=C(c1cccnc1NCc1ccccc1)N1CCOCC1` from this test.
*A* -1

*Q* Please share the test call associated with `O=C(Nc1cc2ccccc2oc1=O)C1CCCCC1` .
*A* -1

*Q* // outcome(item) with item = `CCOC(=O)c1nnn(-c2nonc2-n2cccc2)c1CN1CCOCC1`
*A* -1

*Q* What is the recorded call for this molecule in the test? `CCN(CC)Cc1c(C(=O)OC)nnn1-c1nonc1N`
*A* -1

*Q* Answer briefly: the call reported for `COc1nc(Oc2ccc(=O)n(C)n2)nc(N(C)C)n1` in this assay.
*A* -1

*Q* Called result for `CCCNS(=O)(=O)c1ccc2c(c1)CCCN2C(C)=O`
*A* -1

*Q* Outcome? CCN=C1SC(CC(=O)Nc2ccc(C)cc2)C(=O)N1CC (configuration not stated)
*A* -1

*Q* Outcome logged for `Nc1nc(C23CC4CC(CC(C4)C2)C3)cs1` in this assay:
*A* 1

*Q* Hi, sorry to bother you, what did the test record for `Cc1cc(C)cc(OCc2nnc(SCC(=O)OC3CCCCC3)o2)c1` ?
*A* -1

*Q* Call for entry `CC(=O)Oc1ccc(C(C)=O)c2c1OCCO2` :
*A* -1

*Q* # fetch the recorded call for `CCc1nnc(NC(=O)c2ccc(S(=O)(=O)NC3CCCCC3)cc2)s1` here
*A* -1

*Q* Record request — test call for CC1CCc2c(sc3c2C2=NS(=O)(=O)CCN2C=N3)C1 (configuration not stated)
*A* -1

* * *

# Measured on: Cytochrome P450 2C9 (Homo sapiens) (UniProt P11712)
# Test details: blockers of cytochrome P450 2C9 activity – biochemical, luminescence, ADME assay, primary screen (AID 777)
# Test context: CYP2C9 Supersomes, luciferin-H conversion, at 5 µM, stronger effect = higher value
About 19,000 (20%) of roughly 96,000 compounds were called active. Only a sample is shown.
Assignment: determine reported inhibition for the given molecules.
Dear colleague, please return just the value in %, with no unit written.

*Q* What inhibition appears in the records for this molecule with Cytochrome P450 2C9 (Homo sapiens) (UniProt P11712)? `NC(N)=N/N=C/c1ccc(OCc2ccc(Cl)cc2Cl)cc1`
*A* -11.8

*Q* Kindly state the measured inhibition obtained for C=CCSC1=C(C#N)C(c2cc(Br)c(O)c(OC)c2)CC(=O)N1 (stereo unspecified) with Cytochrome P450 2C9 (Homo sapiens) (UniProt P11712).
*A* 39.1

*Q* Observed inhibition on Cytochrome P450 2C9 (Homo sapiens) (UniProt P11712) for `Cc1ccc(CNC(=O)CCNS(=O)(=O)c2cccc3nonc23)cc1` , please.
*A* -20.4

*Q* Give Cytochrome P450 2C9 (Homo sapiens) (UniProt P11712) inhibition for `O=C(Nc1ccc(-n2ccnc2P(=O)(O)c2ccccc2)cc1)c1ccccc1Br`
*A* 95.5

*Q* Please tell me: inhibition of `Cc1nc(C)c(C(=O)Nc2cccc(C)c2C)o1` , system Cytochrome P450 2C9 (Homo sapiens) (UniProt P11712)?
*A* 1.2

*Q* Field: inhibition (Cytochrome P450 2C9 (Homo sapiens) (UniProt P11712)). Entry: `CCOC(=O)NCc1ccc2c(c1)OCO2`
*A* 10.7

*Q* # value lookup — system Cytochrome P450 2C9 (Homo sapiens) (UniProt P11712), readout inhibition, item `COc1ccccc1-c1nnc(SCC(=O)Nc2ccccc2)o1`
*A* -62.2

*Q* Give inhibition (Cytochrome P450 2C9 (Homo sapiens) (UniProt P11712)) of the following molecule: `CCc1cccc2c(C=C(C#N)C#N)cn(CC(=O)N3CCCCC3)c12`
*A* 0

*Q* What is its inhibition for Cytochrome P450 2C9 (Homo sapiens) (UniProt P11712)? Entry: `CC(C)c1ccc(NS(=O)(=O)c2cn(C)c(=O)n(C)c2=O)cc1`
*A* -7.9

*Q* Short answer please: inhibition, Cytochrome P450 2C9 (Homo sapiens) (UniProt P11712), entry `O=C(Nc1nnc(-c2ccc(Cl)cc2)o1)c1ccccc1Br`
*A* 26

*Q* For the record CC1CC(C)CN(CC(=O)N2c3ccccc3CCc3ccccc32)C1 (stereo unspecified) , what value of inhibition is listed for Cytochrome P450 2C9 (Homo sapiens) (UniProt P11712)?
*A* -3.1

* * *

For each entry below, report its inhibition value.
# Measured on: Cytochrome P450 2C9 (Homo sapiens) (UniProt P11712)
# Test details: blockers of cytochrome P450 2C9 activity – biochemical, luminescence, ADME assay, primary screen (AID 777)
# Test context: CYP2C9 Supersomes, luciferin-H conversion, at 5 µM, stronger effect = higher value
Screen size: about 96,000 compounds; about 19,000 (20%) were called active. The list is a sample of the results.
Write the number in % without appending the unit.

*Q* Request body: readout inhibition, system Cytochrome P450 2C9 (Homo sapiens) (UniProt P11712), query `COCCCNC(=O)c1ccc2c(c1)ncn2-c1ccccc1OC` . Return the value.
*A* -38.2

*Q* State its inhibition on Cytochrome P450 2C9 (Homo sapiens) (UniProt P11712): CCOC(=O)C(Sc1ncc(C#N)c(N)n1)C(C)C (stereo not drawn)
*A* 25.3

*Q* Notebook: pull reported inhibition for Cytochrome P450 2C9 (Homo sapiens) (UniProt P11712), entry CCC1C(C#N)=C(SC)NC2=C1C(=O)CC(C)(C)C2 (stereo not drawn)
*A* 19

*Q* Give recorded inhibition with Cytochrome P450 2C9 (Homo sapiens) (UniProt P11712) for the following molecule: `N#Cc1c(N)sc2c1CCN(C(=O)OCc1ccccc1)C2`
*A* 97.9

*Q* Please provide the recorded inhibition for `CSc1nc(O)c(Cc2ccccc2)c(=O)[nH]1` , tested on Cytochrome P450 2C9 (Homo sapiens) (UniProt P11712).
*A* 7.9

*Q* Notebook: pull reported inhibition for Cytochrome P450 2C9 (Homo sapiens) (UniProt P11712), entry `COc1ccccc1-n1cnc2cc(NS(=O)(=O)c3ccccc3)ccc21`
*A* 82.5

*Q* Hi! What's the reported inhibition for CCOC(=O)C1=C(C)NC2=C(C(=O)CC(C)(C)C2)C1c1ccsc1 (stereo not drawn) on Cytochrome P450 2C9 (Homo sapiens) (UniProt P11712)?
*A* 39.8

*Q* What value of inhibition on Cytochrome P450 2C9 (Homo sapiens) (UniProt P11712) does `O=C(Nc1ccon1)c1cccc(Cl)c1` have?
*A* 17.5
